Data origin, for the record: paper PMC3713010

Molecular target: T1, Brn2 DNA-binding domain (BD-Brn2) (Mus musculus (B6), UniProt P31360 336-435)
T1 sequence: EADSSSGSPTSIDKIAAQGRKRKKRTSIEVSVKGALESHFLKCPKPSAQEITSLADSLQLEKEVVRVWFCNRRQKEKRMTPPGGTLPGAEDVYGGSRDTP
Experiment: EMSA; 10% glycerol, 20 mM HEPES pH 7.8, 45 mM KCl, 10 mM NaCl, 1 mM EDTA, 1 mM DTT, 0.2 ug/uL BSA, 0.1% NP-40, 50 ng poly-dIdC; 20 ng each GST protein; room temperature 30 min (heterodimers 4 C); 6% PAGE 0.25x TBE
Settings: protein: recombinant; tags: GST (N-terminal, pGEX-6P-1); label: 32P-dCTP fill-in of the 5' (dG)5 overhangs of both strands (Methods; control probes are given with GGG)
property-label: binding result

# example entries with known answers
12 (dsDNA) DNA 1: GGGGGAGTATGAGTTTGTATATGTTGATTAACCAAACACTCCCCC DNA 2: GGGGGAGTGTTTGGTTAATCAACATATACAAACTCATACTCCCCC ... binds
18 (dsDNA) DNA 1: GGGGGCTTAGAATTAGTAATTTCTTGATATTGTCTGTTAAGCCCCC DNA 2: GGGGGCTTAACAGACAATATCAAGAAATTACTAATTCTAAGCCCCC ... no binding
43 (dsDNA) DNA 1: GGGGGAGGAGTGCTTTGTAAAAATAACTTCTATGTCCCCC DNA 2: GGGGGACATAGAAGTTATTTTTACAAAGCACTCCTCCCCC ... no binding
91 (dsDNA) DNA 1: GGGGGTTTGTTTGTTTGTTTTTAAAAATAAGGTCTCGGGCCCCC DNA 2: GGGGGCCCGAGACCTTATTTTTAAAAACAAACAAACAAACCCCC ... no binding
5 (dsDNA) DNA 1: GGGGGTGTAGGTCATTGTGGCCTCAAATTTGGTAATGTAACCCCC DNA 2: GGGGGTTACATTACCAAATTTGAGGCCACAATGACCTACACCCCC ... binds
81 (dsDNA) DNA 1: GGGGGAGAGTGCTGGTATTAAAAGGCACAAACTTTCTTTCCCCC DNA 2: GGGGGAAAGAAAGTTTGTGCCTTTTAATACCAGCACTCTCCCCC ... no binding

State, in one line, measured binding result of 109 (dsDNA) DNA 1: GGGGGCTTTTTTTTTTGTATGTGATTTGAGGCAGAGTCCCCC DNA 2: GGGGGACTCTGCCTCAAATCACATACAAAAAAAAAAGCCCCC
no binding

Annotate the binder 26 (dsDNA) DNA 1: GGGGGGTGGAGGCTTTGTGTAATCAGTCTGTGTACCCCC DNA 2: GGGGGTACACAGACTGATTACACAAAGCCTCCACCCCCC with its measured binding result.
binds

Read off the recorded binding result for 112 (dsDNA) DNA 1: GGGGGTGTGTTCATTTGTTTTTATTTTAGAAGGAGTCCCCC DNA 2: GGGGGACTCCTTCTAAAATAAAAACAAATGAACACACCCCC
binds

Indicate its recorded binding result; the binder in question is 62 (dsDNA) DNA 1: GGGGGTTTAAACAATTGTCCCATTCATTATATTGCAACACCCCC DNA 2: GGGGGTGTTGCAATATAATGAATGGGACAATTGTTTAAACCCCC
binds
